Data origin: paper PMC3701070

# System: NCI-H322
# test-details: Cell growth assay
# Type: cell-based
# test-settings: Homo sapiens, 72 h; NCI-H322, RAF WT, RAS WT, 3-day; read-out: gIC50
quantity: IC50

Reported IC50 for CC(C)(C)c1nc(-c2cccc(NS(=O)(=O)c3c(F)cccc3F)c2F)c(-c2ccnc(N)n2)s1 : what is it?
> 10 µM

###

# Test system: NCI-H716
# test-details: Cell growth assay
# Format: cell-based
# test-settings: Homo sapiens, 72 h; NCI-H716, RAF WT, RAS WT, 3-day; read-out: gIC50
quantity: IC50

For the compound shown here, CC(C)(C)c1nc(-c2cccc(NS(=O)(=O)c3c(F)cccc3F)c2F)c(-c2ccnc(N)n2)s1 , give the reported IC50.
> 10 µM

###

# study-system: NEK11 (h) (Homo sapiens, UniProt Q8NG66)
# Sequence (Q8NG66 whole entry): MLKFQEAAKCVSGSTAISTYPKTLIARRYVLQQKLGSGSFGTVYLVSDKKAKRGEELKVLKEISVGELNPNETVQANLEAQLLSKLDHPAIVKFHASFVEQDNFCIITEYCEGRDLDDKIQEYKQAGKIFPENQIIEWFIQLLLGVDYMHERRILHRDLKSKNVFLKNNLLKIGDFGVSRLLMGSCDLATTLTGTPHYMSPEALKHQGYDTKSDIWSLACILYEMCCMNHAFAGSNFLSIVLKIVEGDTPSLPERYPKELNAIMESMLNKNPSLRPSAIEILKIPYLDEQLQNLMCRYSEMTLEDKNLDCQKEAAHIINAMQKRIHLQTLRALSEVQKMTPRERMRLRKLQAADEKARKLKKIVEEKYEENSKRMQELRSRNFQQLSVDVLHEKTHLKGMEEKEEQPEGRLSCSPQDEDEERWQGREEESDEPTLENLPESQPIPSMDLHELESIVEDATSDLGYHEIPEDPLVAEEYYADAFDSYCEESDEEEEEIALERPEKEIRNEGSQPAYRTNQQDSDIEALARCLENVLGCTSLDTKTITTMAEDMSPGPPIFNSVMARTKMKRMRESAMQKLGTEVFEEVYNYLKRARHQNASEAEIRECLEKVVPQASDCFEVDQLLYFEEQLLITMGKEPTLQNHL
quantity: pIC50
In simple prose, pIC50 is minus the logarithm base ten of a concentration in moles per litre.

Can you share its pIC50? I mean this compound: CC(C)(C)c1nc(-c2cccc(NS(=O)(=O)c3c(F)cccc3F)c2F)c(-c2ccnc(N)n2)s1
7.70

###

# Tested on: DU-145
# test-details: Cell growth assay
# Assay type: cell-based
# test-settings: Homo sapiens, 72 h; DU-145, RAF WT, RAS WT, 3-day; read-out: gIC50
# Experimental: Growth was measured with CellTiter-Glo® (Promega) reagent per the manufacturer’s protocol, using a PerkinElmer EnVision™ reader at t = 0 and 72 h. IC50 values for cell growth inhibition (gIC50) were determined. (PDF) Click here for additional data file.
pIC50: −log10 of the molar value.
quantity: pIC50

Returns the measured pIC50 for the input compound. Input: CC(C)(C)c1nc(-c2cccc(NS(=O)(=O)c3c(F)cccc3F)c2F)c(-c2ccnc(N)n2)s1
< 5.00

###

# Test system: Be(2)C
# test-details: Cell growth assay
# Type: cell-based
# test-settings: Homo sapiens, 72 h, RAF WT, RAS WT, 3-day, read-out: gIC50
quantity: IC50

Consider the molecule CC(C)(C)c1nc(-c2cccc(NS(=O)(=O)c3c(F)cccc3F)c2F)c(-c2ccnc(N)n2)s1 and give its measured IC50.
> 10 µM

###

# System: SW1990
# test-details: Cell growth assay
# Format: cell-based
# test-settings: Homo sapiens, 72 h; SW1990, RAF WT, RAS WT, 3-day; read-out: gIC50
pIC50: −log10 of the molar value.
quantity: pIC50

Dear colleague, I am looking for the recorded pIC50 of the following compound: CC(C)(C)c1nc(-c2cccc(NS(=O)(=O)c3c(F)cccc3F)c2F)c(-c2ccnc(N)n2)s1
< 5.00

###

# study-system: SIK (h) (Homo sapiens, UniProt P57059)
# Construct: purchased Millipore
# Sequence (P57059 whole entry): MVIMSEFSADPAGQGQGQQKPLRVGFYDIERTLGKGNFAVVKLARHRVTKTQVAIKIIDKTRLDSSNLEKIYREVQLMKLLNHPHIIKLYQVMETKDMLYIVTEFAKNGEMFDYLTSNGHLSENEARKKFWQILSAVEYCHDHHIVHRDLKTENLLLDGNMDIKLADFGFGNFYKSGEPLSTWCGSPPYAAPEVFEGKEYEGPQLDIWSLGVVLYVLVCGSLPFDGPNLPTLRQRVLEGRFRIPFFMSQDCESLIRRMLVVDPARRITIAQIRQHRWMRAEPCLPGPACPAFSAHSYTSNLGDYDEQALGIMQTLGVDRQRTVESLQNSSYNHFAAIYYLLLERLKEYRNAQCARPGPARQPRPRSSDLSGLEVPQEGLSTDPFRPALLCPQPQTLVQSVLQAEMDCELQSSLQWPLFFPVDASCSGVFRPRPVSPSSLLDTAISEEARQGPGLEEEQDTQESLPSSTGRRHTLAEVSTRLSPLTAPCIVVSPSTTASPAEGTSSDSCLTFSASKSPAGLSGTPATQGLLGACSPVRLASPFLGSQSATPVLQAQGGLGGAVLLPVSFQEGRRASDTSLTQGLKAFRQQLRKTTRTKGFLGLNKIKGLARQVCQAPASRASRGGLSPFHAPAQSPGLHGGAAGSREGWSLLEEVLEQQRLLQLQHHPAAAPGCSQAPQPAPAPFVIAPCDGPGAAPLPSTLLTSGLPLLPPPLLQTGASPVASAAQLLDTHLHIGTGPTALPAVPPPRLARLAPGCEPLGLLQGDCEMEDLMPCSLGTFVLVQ
# test-details: Kinase panel (Millipore) enzyme activity
# Format: biochemical
quantity: pIC50
Units for pIC50: none; it is -log10 of a concentration expressed in mol/L.

Data request, read-out pIC50, for CC(C)(C)c1nc(-c2cccc(NS(=O)(=O)c3c(F)cccc3F)c2F)c(-c2ccnc(N)n2)s1
7.57

###

quantity: IC50 (nM)
Provide only the numeric value, understood in nM.

Give the reported IC50 for CC(C)(C)c1nc(-c2cccc(NS(=O)(=O)c3c(F)cccc3F)c2F)c(-c2ccnc(N)n2)s1 (system: PKD2 (h) (Homo sapiens)).
Sequence (Q9BZL6 whole entry): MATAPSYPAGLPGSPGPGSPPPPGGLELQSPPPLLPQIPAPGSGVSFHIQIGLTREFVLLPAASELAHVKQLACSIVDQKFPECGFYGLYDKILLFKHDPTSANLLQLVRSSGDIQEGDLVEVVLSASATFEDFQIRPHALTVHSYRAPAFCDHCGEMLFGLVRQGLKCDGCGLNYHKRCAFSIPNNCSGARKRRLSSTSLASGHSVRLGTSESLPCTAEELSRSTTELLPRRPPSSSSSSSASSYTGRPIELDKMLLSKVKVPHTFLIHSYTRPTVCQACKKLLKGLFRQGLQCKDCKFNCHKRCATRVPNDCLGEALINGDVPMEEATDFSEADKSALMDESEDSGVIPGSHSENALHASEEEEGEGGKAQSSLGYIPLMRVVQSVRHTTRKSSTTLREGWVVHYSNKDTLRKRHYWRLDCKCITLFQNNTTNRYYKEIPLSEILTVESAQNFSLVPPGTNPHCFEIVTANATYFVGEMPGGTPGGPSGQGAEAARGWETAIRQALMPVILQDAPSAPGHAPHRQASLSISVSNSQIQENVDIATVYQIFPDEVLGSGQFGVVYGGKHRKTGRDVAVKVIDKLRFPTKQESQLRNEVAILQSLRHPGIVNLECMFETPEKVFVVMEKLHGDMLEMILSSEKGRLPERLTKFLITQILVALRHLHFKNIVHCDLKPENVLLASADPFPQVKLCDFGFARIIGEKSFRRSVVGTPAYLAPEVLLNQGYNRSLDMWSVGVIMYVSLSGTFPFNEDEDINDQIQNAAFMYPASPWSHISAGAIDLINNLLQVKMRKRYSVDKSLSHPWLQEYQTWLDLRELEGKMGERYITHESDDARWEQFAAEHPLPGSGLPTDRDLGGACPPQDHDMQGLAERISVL
57

###

# System: NCI-H69
# test-details: Cell growth assay
# Format: cell-based
# test-settings: Homo sapiens, 72 h; NCI-H69, RAF WT, RAS WT, 3-day; read-out: gIC50
pIC50: −log10 of the molar value.
quantity: pIC50

What value of pIC50 has been recorded for this entry: CC(C)(C)c1nc(-c2cccc(NS(=O)(=O)c3c(F)cccc3F)c2F)c(-c2ccnc(N)n2)s1
< 5.00

###

# System: GCT
# test-details: Cell growth assay
# Format: cell-based
# test-settings: Homo sapiens, 72 h, BRAF(V600E), RAS WT, 3-day, read-out: gIC50
# Procedure: Growth was measured with CellTiter-Glo® (Promega) reagent per the manufacturer’s protocol, using a PerkinElmer EnVision™ reader at t = 0 and 72 h. IC50 values for cell growth inhibition (gIC50) were determined. (PDF) Click here for additional data file.
quantity: IC50

IC50 for CC(C)(C)c1nc(-c2cccc(NS(=O)(=O)c3c(F)cccc3F)c2F)c(-c2ccnc(N)n2)s1 ?
> 10 µM

###

# Test system: SW872
# test-details: Cell growth assay
# Format: cell-based
# test-settings: Homo sapiens, 72 h; SW872, BRAF(V600E), RAS WT, 3-day; read-out: gIC50
quantity: pIC50
// scale note: pIC50 = -log10(conc_M); give the bare number

For the compound shown here, CC(C)(C)c1nc(-c2cccc(NS(=O)(=O)c3c(F)cccc3F)c2F)c(-c2ccnc(N)n2)s1 , give the reported pIC50.
6.42

###

# Tested on: MDA-MB-468
# test-details: Cell growth assay
# Type: cell-based
# test-settings: Homo sapiens, 72 h; MDA-MB-468, RAF WT, RAS WT, 3-day; read-out: gIC50
pIC50: −log10 of the molar value.
quantity: pIC50

What does the data say about its pIC50? Entry: CC(C)(C)c1nc(-c2cccc(NS(=O)(=O)c3c(F)cccc3F)c2F)c(-c2ccnc(N)n2)s1
< 5.00

###

# System: OV-90
# test-details: Cell growth assay
# Format: cell-based
# test-settings: Homo sapiens, 72 h; OV-90, BRAF(del486-490), RAS WT, 3-day; read-out: gIC50
quantity: IC50 (nM)
Give just the numeric value; nM need not be written.

Kindly state the measured IC50 obtained for CC(C)(C)c1nc(-c2cccc(NS(=O)(=O)c3c(F)cccc3F)c2F)c(-c2ccnc(N)n2)s1 [dabrafenib] with OV-90.
29

###

# Test system: SK-N-AS
# test-details: Cell growth assay
# Type: cell-based
# test-settings: Homo sapiens, 72 h, RAF WT, NRAS(Q61K), 3-day, read-out: gIC50
quantity: IC50

Look up IC50: CC(C)(C)c1nc(-c2cccc(NS(=O)(=O)c3c(F)cccc3F)c2F)c(-c2ccnc(N)n2)s1
> 10 µM

###

# System: SF-268
# test-details: Cell growth assay
# Format: cell-based
# test-settings: Homo sapiens, 72 h; SF-268, RAF WT, RAS WT, 3-day; read-out: gIC50
quantity: IC50

// IC50 lookup, key: CC(C)(C)c1nc(-c2cccc(NS(=O)(=O)c3c(F)cccc3F)c2F)c(-c2ccnc(N)n2)s1
> 10 µM

###

# System: A427
# test-details: Cell growth assay
# Format: cell-based
# test-settings: Homo sapiens, A-427, 72 h; A427, RAF WT, RAS WT, 3-day; read-out: gIC50
pIC50: −log10 of the molar value.
quantity: pIC50

Bench note: what pIC50 did CC(C)(C)c1nc(-c2cccc(NS(=O)(=O)c3c(F)cccc3F)c2F)c(-c2ccnc(N)n2)s1 show?
< 5.00

###

# Tested on: SK-UT-1
# test-details: Cell growth assay
# Assay type: cell-based
# test-settings: Homo sapiens, 72 h; SK-UT-1, RAF WT, RAS WT, 3-day; read-out: gIC50
# Procedure: Growth was measured with CellTiter-Glo® (Promega) reagent per the manufacturer’s protocol, using a PerkinElmer EnVision™ reader at t = 0 and 72 h. IC50 values for cell growth inhibition (gIC50) were determined. (PDF) Click here for additional data file.
pIC50: −log10 of the molar value.
quantity: pIC50

Enter reported pIC50 observed with SK-UT-1 for CC(C)(C)c1nc(-c2cccc(NS(=O)(=O)c3c(F)cccc3F)c2F)c(-c2ccnc(N)n2)s1
< 5.00

###

# Tested on: C33A
# test-details: Cell growth assay
# Format: cell-based
# test-settings: Homo sapiens, C-33-A, 72 h, RAF WT, RAS WT, 3-day, read-out: gIC50
quantity: IC50

Any idea what its IC50 is? The molecule is CC(C)(C)c1nc(-c2cccc(NS(=O)(=O)c3c(F)cccc3F)c2F)c(-c2ccnc(N)n2)s1
> 10 µM

###

# System: SNB-19
# test-details: Cell growth assay
# Type: cell-based
# test-settings: Homo sapiens, 72 h; SNB-19, RAF WT, RAS WT, 3-day; read-out: gIC50
quantity: IC50

What measured IC50 goes with CC(C)(C)c1nc(-c2cccc(NS(=O)(=O)c3c(F)cccc3F)c2F)c(-c2ccnc(N)n2)s1 ?
> 10 µM

###

# System: NCI-H226
# test-details: Cell growth assay
# Type: cell-based
# test-settings: Homo sapiens, 72 h; NCI-H226, RAF WT, RAS WT, 3-day; read-out: gIC50
quantity: IC50

Which IC50 reading was recorded for the molecule CC(C)(C)c1nc(-c2cccc(NS(=O)(=O)c3c(F)cccc3F)c2F)c(-c2ccnc(N)n2)s1 ?
> 10 µM

###

# System: A101D
# test-details: Cell growth assay
# Assay type: cell-based
# test-settings: Homo sapiens, 72 h, BRAF(V600E), RAS WT, 3-day, read-out: gIC50
quantity: pIC50
Formally, pIC50 is defined as -log10 of the concentration c, with c in mol/L.

Form field: pIC50 recorded for CC(C)(C)c1nc(-c2cccc(NS(=O)(=O)c3c(F)cccc3F)c2F)c(-c2ccnc(N)n2)s1 with A101D (enter value)
8.05
